Origin of measurements: paper PMC8284004

- test.method.notes: SAR study of A/S derivatives on Hs27 metabolic activity (MTT)
- run.conditions: human
measured.attribute: viability at 3 days, 0.5 µM

- CC(C)=CC[C@H](O)C1=CC(=O)c2c(O)ccc(O)c2C1=O: > 110%
